I'd appreciate it if you could supply % Activation at 10 µM values for the items below.
target: human MCH receptor expressed from the open reading frame cDNA SEQ. ID. NO. 1 in 293-AEQ17 cells (human, UniProt Q99705 1-353); assay: cell-based or functional assay
Sequence (Q99705 whole entry): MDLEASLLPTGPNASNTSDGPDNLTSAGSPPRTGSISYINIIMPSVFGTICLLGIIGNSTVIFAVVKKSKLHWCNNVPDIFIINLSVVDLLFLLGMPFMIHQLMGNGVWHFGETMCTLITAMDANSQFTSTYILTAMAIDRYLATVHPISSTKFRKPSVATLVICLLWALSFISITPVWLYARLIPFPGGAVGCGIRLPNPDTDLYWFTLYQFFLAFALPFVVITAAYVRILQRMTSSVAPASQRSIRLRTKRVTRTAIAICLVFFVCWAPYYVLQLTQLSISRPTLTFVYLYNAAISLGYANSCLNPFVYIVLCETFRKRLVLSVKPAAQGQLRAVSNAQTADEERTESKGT
Bridges are numbered along the chain shown (N, C = ends). Where no end group is shown, it is not given here.
Give just the numeric value; % need not be written.

Ask: Provide one value: measured % Activation at 10 µM of Ac-CMLGRVYRPCWQV (disulfide 1-10 (inferred)) [MCH analog SEQ. ID. NO. 12: Ac-Cys-Met-Leu-Gly-Arg-Val-Tyr-Arg-Pro-Cys-Trp-Gln-Val]
Result: 3

Ask: Provide one value: measured % Activation at 10 µM of DFDXLRCXLGRVYRPCWQV (norleucine (Nle) at positions 4 and 8; cyclization (S-S) between the two Cys)
Result: 65.9

Ask: Provide one value: measured % Activation at 10 µM of DFDMLRCMLGRVYRPC-NH2 (disulfide 7-16; N-terminus assumed; SMILES CSCC[C@@H]1NC(=O)[C@@H](NC(=O)[C@H](CCCNC(=N)N)NC(=O)[C@H](CC(C)C)NC(=O)[C@H](CCSC)NC(=O)[C@H](CC(=O)O)NC(=O)[C@H](Cc2ccccc2)NC(=O)[C@@H](N)CC(=O)O)CSSC[C@@H](C(N)=O)NC(=O)[C@@H]2CCCN2C(=O)[C@H](CCCNC(=N)N)NC(=O)[C@H](Cc2ccc(O)cc2)NC(=O)[C@H](C(C)C)NC(=O)[C@H](CCCNC(=N)N)NC(=O)CNC(=O)[C@H](CC(C)C)NC1=O)
Result: 99

Ask: Provide one value: measured % Activation at 10 µM of DFAMLRCMLGRVFRPCWQY (disulfide 7-16 (inferred))
Result: 62.2

Ask: Provide one value: measured % Activation at 10 µM of Ac-RCMLGRVFRPCY-NH2 (disulfide 2-11; SMILES CSCC[C@@H]1NC(=O)[C@@H](NC(=O)[C@H](CCCNC(=N)N)NC(C)=O)CSSC[C@@H](C(=O)N[C@@H](Cc2ccc(O)cc2)C(N)=O)NC(=O)[C@@H]2CCCN2C(=O)[C@H](CCCNC(=N)N)NC(=O)[C@H](Cc2ccccc2)NC(=O)[C@H](C(C)C)NC(=O)[C@H](CCCNC(=N)N)NC(=O)CNC(=O)[C@H](CC(C)C)NC1=O) [truncated MCH analog SEQ. ID. NO. 8: Ac-Arg-Cys-Met-Leu-Gly-Arg-Val-Phe-Arg-Pro-Cys-Tyr-amide]
Result: 123

Ask: Provide one value: measured % Activation at 10 µM of DFDMLRCMLGRVYRPCWQV (disulfide 7-16) [mammalian MCH (SEQ. ID. NO. 11)]
Result: 100

Ask: Provide one value: measured % Activation at 10 µM of Ac-RCMLGRVYRPC-NH2 (disulfide 2-11 (inferred), Corresponds to MCH positions 6-16; also called ID; NO; 7 MCH analog) [truncated MCH analog SEQ. ID. NO. 7: Ac-Arg-Cys-Met-Leu-Gly-Arg-Val-Tyr-Arg-Pro-Cys-amide]
Result: 123

Ask: Provide one value: measured % Activation at 10 µM of Ac-CMLGRVYRPC-NH2 (disulfide 1-10; SMILES CSCC[C@@H]1NC(=O)[C@@H](NC(C)=O)CSSC[C@@H](C(N)=O)NC(=O)[C@@H]2CCCN2C(=O)[C@H](CCCNC(=N)N)NC(=O)[C@H](Cc2ccc(O)cc2)NC(=O)[C@H](C(C)C)NC(=O)[C@H](CCCNC(=N)N)NC(=O)CNC(=O)[C@H](CC(C)C)NC1=O) [truncated MCH analog SEQ. ID. NO. 9: Ac-Cys-Met-Leu-Gly-Arg-Val-Tyr-Arg-Pro-Cys-amide]
Result: 74
